Values compiled from patent US9115133B2.

# Tested system: Recombinant JAK1 (Amino acids 850-1154) (Homo sapiens, UniProt P23458)
# Construct: Recombinant JAK1 (Amino acids 850-1154; NM_002227.2)
# Sequence (P23458 850-1154): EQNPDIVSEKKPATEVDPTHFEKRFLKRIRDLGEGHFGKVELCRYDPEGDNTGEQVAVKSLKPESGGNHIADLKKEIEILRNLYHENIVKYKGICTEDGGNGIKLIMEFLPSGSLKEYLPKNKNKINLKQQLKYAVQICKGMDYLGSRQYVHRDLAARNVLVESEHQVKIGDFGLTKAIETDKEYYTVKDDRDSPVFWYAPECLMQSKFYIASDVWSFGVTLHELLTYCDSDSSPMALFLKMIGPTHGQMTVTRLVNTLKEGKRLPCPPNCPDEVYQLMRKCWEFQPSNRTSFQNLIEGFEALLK
# Assay info: Kinase-Glo Luminescent Kinase Assay, recombinant JAK1
# Study conditions: 200 μg/ml Poly Glu-Tyr (4:1), ATP 1 uM, 90 min room temperature, luminescence
pIC50: −log10 of the molar value.
Each item that follows carries a reported pIC50.

Example entries and their recorded answers appear below.
{"Molecule": "N#CCS(=O)(=O)N1CCN(c2ccnc3cnc4[nH]ccc4c23)CC1 [Ex. 105]", "Tested system": "Recombinant JAK1 (Amino acids 850-1154) (Homo sapiens, UniProt P23458)", "pIC50": "7.70 to 9.00"}
{"Molecule": "CC(C)(C)C(=O)N1CCCC(c2ncnc3cnc4[nH]ccc4c23)C1 (centres unmarked) [Ex. 28]", "Tested system": "Recombinant JAK1 (Amino acids 850-1154) (Homo sapiens, UniProt P23458)", "pIC50": "7.70 to 9.00"}

### Prompt API: value(readout= pIC50, system= Recombinant JAK1 (Amino acids 850-1154) (Homo sapiens, UniProt P23458), query= N#CCC(=O)N1CCCC(c2ccnc3cnc4[nH]ccc4c23)C1 (centres unmarked) [Ex. 1] )
### Response 7.70 to 9.00

### Prompt API: value(readout=pIC50, system=Recombinant JAK1 (Amino acids 850-1154) (Homo sapiens, UniProt P23458)) for record CC(C)(C)OC(=O)N1CCCC(c2ccnc3cnc4[nH]ccc4c23)C1 (centres unmarked) [Comp. 41]
### Response 7.70 to 9.00

### Prompt Hello, I am looking for reported pIC50 with Recombinant JAK1 (Amino acids 850-1154) (Homo sapiens, UniProt P23458) for O=C(CC(F)(F)F)N1CCC[C@@H](c2ncnc3cnc4[nH]ccc4c23)C1 [Ex. 24A] . Could you help?
### Response < 7.70
